# PROTOCOL: Test 4 Increase in Halothane Induced Sleep Time (sedative potential)
# Assay type: in vivo, mice
# RECORDED CONDITIONS: mouse, in vivo, po; ratio of Test 4 dose to doses in Tests 1-3; read-out: dose prolonging halothane-induced sleep relative to doses required to inhibit dopaminergic responses
QUANTITY: selectivity ratio

Task: Which selectivity ratio reading was recorded for the compound `OC1(c2ccc(Cl)cc2)CCN(Cc2c[nH]c3ccccc23)CC1` ?
Result: 8 to 20

====

# PROTOCOL: Test 5 Increase in Fall Rate From Revolving Drum (ability to induce extrapyramidal effects)
# Format: in vivo, mice
# RECORDED CONDITIONS: mouse, in vivo, po; Table I; mice, one hour after dosing; dose inducing fall rate half of maximum theoretically possible; read-out: ED50, increase in fall rate from revolving drum
Would you mind telling me the reported TD50 at 1 h of each entry?
Write the value in mg/kg as a bare number.

Task: Which TD50 at 1 h reading was recorded for the compound OC1(c2ccc(Cl)cc2)CCN(Cc2c[nH]c3ccccc23)CC1 [Example 1] ?
Result: 50

Task: Which TD50 at 1 h reading was recorded for the compound O=C(CCCN1CCC(O)(c2ccc(Cl)cc2)CC1)c1ccc(F)cc1 [Haloperidol, haloperidol, reference compound] ?
Result: 0.9
